- targetEntity: recombinant 15-PGDH protein (Homo sapiens (Human), UniProt P15428)
- Sequence (P15428 whole entry): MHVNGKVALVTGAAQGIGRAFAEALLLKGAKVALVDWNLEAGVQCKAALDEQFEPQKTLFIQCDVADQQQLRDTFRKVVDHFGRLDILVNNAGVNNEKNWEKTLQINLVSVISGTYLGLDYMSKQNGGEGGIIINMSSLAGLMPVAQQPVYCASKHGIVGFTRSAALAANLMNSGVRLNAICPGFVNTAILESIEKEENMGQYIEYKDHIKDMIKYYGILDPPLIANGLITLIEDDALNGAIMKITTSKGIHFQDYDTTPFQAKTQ
- experiment: Inhibition of enzymatic activity of recombinant 15-PGDH in vitro
- Type: biochemical
- assaySetup: read-out: Enzyme inhibition % ([…]), recombinant 15-PGDH, […] compound; read-out: Enzyme inhibition % (2.5 μM)
observedProperty: inhibition at […]

1. COc1ccc(OC)c(N(CC(N)=O)S(=O)(=O)c2ccccc2)c1 | 11.8%
2. COc1ccc(OC)c(N(CC(=O)Nc2ccccn2)S(=O)(=O)c2ccccc2)c1 | 10.9%
3. COc1ccc(OC)c(N(CC(=O)Nc2cccnc2)S(=O)(=O)c2ccccc2)c1 | 20.2%
4. COc1ccc(OC)c(N(CC(=O)Nc2cccnc2)S(=O)(=O)c2ccccc2C#N)c1 | 8.83%
5. CCCOC(=O)CN(c1cc(OC)ccc1OC)[S@SP3](=O)(=O)c1ccccc1 | -2.22%
6. COc1ccc(OC)c(N(CC(=O)Nc2cnccn2)S(=O)(=O)c2ccccc2)c1 | 36.8%
7. COc1ccc(OC)c(N(CC(=O)N2CCCCC2)S(=O)(=O)c2ccccc2)c1 | 23.1%
8. COc1ccc(OC)c(N(CC(=O)Nc2cc(C)no2)S(=O)(=O)c2ccccc2)c1 | 4.19%
9. COc1ccc(OC)c(CN(CC(=O)Nc2cccnc2)S(=O)(=O)c2ccccc2)c1 | 13.1%

====

- targetEntity: recombinant 15-PGDH protein (Homo sapiens (Human))
- experiment: Inhibition of enzymatic activity of recombinant 15-PGDH in vitro
- Format: biochemical
- assaySetup: read-out: Enzyme inhibition % ([…]), Table 18; […] compound; read-out: Enzyme inhibition % (2.5 μM)
observedProperty: inhibition at […] (%)

1. COc1ccc(OC)c(N(CC(=O)NC2CCCCC2)S(=O)(=O)c2ccccc2)c1 [333446-93-8] | -5.31
2. COc1ccccc1N(CC(=O)Nc1cccnc1)S(=O)(=O)c1ccccc1 [367929-80-4] | 8.95
3. COc1ccc(OC)c(N(CC(=O)Nc2ccc(F)cc2)S(=O)(=O)c2ccccc2)c1 [426231-26-7] | 39.8

====

- targetEntity: recombinant 15-PGDH protein (Homo sapiens (Human))
- experiment: Inhibition of enzymatic activity of recombinant 15-PGDH in vitro
- Format: biochemical
- assaySetup: read-out: Enzyme inhibition % ([…]), recombinant 15-PGDH, […] compound; read-out: Enzyme inhibition % (2.5 μM)
Decision: inhibition at […] >= 30% yields Y, all other cases yield N.

1. COc1ccc(OC)c(N(C(C)C(=O)Nc2cccnc2)S(=O)(=O)c2ccccc2)c1 (centres unmarked) | N
2. COc1ccc(OC)c(N(CC(=O)Nc2cccnn2)S(=O)(=O)c2ccccc2)c1 | Y
3. COc1ccc(OC)c(N(CC(=O)Nc2cncc(C)c2)S(=O)(=O)c2ccccc2)c1 | N
4. COc1ccc(OC)c(N(CC(=O)Nc2csnc2C)S(=O)(=O)c2ccccc2)c1 | N
5. COc1ccc(OC)c(N(CC(=O)N2CCc3ccccc32)S(=O)(=O)c2ccccc2)c1 | N
6. COc1ccc(OC)c(N(CC(=O)Nc2ccccc2C)S(=O)(=O)c2ccccc2)c1 | N
7. COc1ccc(OC)c(N(CC(=O)Nc2ccnc(F)c2)S(=O)(=O)c2ccccc2)c1 | Y
8. COc1ccc(OC)c(N(CC(=O)N2CCCCCC2)S(=O)(=O)c2ccccc2)c1 | N

====

- targetEntity: recombinant 15-PGDH protein (Homo sapiens (Human), UniProt P15428)
- experiment: Inhibition of enzymatic activity of recombinant 15-PGDH in vitro
- Format: biochemical
- assaySetup: read-out: Enzyme inhibition % ([…]), recombinant 15-PGDH, […] compound; read-out: Enzyme inhibition % (7.5 μM)
Categorized via inhibition at […]: low: < 10%; mid: ≥ 10% and < 30%; high: ≥ 30%

1) COc1ccc(OC)c(N(CC(=O)Nc2cccnc2)S(=O)(=O)c2ccc(C(C)=O)cc2)c1 | high
2) COc1ccc(OC)c(N(CC(=O)Nc2ccncc2F)S(=O)(=O)c2ccccc2)c1 | high
3) COc1ccc(OC)c(N(CC(=O)O)S(=O)(=O)c2ccccc2)c1 | low
4) COc1ccc(OC)c(N(CC(=O)Nc2cccnc2)S(=O)(=O)c2ccccc2Cl)c1 | high
5) COc1ccc(OC)c(N(CC(=O)N2CCc3ccccc32)S(=O)(=O)c2ccccc2)c1 | mid
6) COc1ccc(OC)c(N(CC(=O)Nc2cncc(C)c2)S(=O)(=O)c2ccccc2)c1 | mid
7) COc1ccc(OC)c(N(CC(N)=O)S(=O)(=O)c2ccccc2)c1 | high
8) COc1ccc(OC)c(CN(CC(=O)Nc2cccnc2)S(=O)(=O)c2ccccc2)c1 | high
9) COc1ccc(OC)c(N(CC(=O)Nc2cccnc2)S(=O)(=O)c2c(C)cc(C)cc2C)c1 | mid
10) COc1ccc(OC)c(N(C(C)C(=O)Nc2cccnc2)S(=O)(=O)c2ccccc2)c1 (centres unmarked) | low
11) COc1ccc(S(=O)(=O)N(CC(=O)N2CCCCC2)c2cc(OC)ccc2OC)cc1 | low
12) COc1ccc(OC)c(N(CC(=O)Nc2ccncc2)S(=O)(=O)c2ccccc2)c1 | high
13) COc1ccc(OC)c(N(CC(=O)Nc2cccnc2)S(=O)(=O)c2ccccc2C)c1 | mid
14) COc1ccc(OC)c(N(CC(=O)Nc2ccccc2Cl)S(=O)(=O)c2ccccc2)c1 | low
15) COc1ccc(OC)c(N(CC(=O)N2CCCCCC2)S(=O)(=O)c2ccccc2)c1 | mid
16) COc1ccc(OC)c(N(CC(=O)Nc2cc(C)no2)S(=O)(=O)c2ccccc2)c1 | low

====

- targetEntity: recombinant 15-PGDH protein (Homo sapiens (Human), UniProt P15428)
- experiment: Inhibition of enzymatic activity of recombinant 15-PGDH in vitro;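 further: activity of recombinant human 15-PGDH assayed in vitro using PGE2 as the substrate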
- Type: biochemical
- assaySetup: read-out: Enzyme inhibition % ([…]), recombinant 15-PGDH, […] compound; read-out: Enzyme inhibition % (7.5 μM)
observedProperty: inhibition at […] (%)

1. COc1ccc(OC)c(N(CC(=O)Nc2cccnc2)S(=O)(=O)c2ccccc2C#N)c1 [SW202945] | 11.1
2. COc1ccc(OC)c(NCC(=O)Nc2cccnc2)c1 [SW202948] | 56.7
3. COc1ccc(OC)c(N(CC(=O)Nc2ccnc(C)c2)S(=O)(=O)c2ccccc2)c1 [SW202966] | 61.4
4. COc1ccc(OC)c(N(CC(=O)Nc2cccnc2)S(=O)(=O)c2ccc(F)cc2)c1 [SW203736] | 24.9
5. COc1ccc(OC)c(N(CC(=O)N2CCOCC2)S(=O)(=O)c2ccccc2)c1 [SW125991] | 31.6
6. CCOC(=O)CN(c1cc(OC)ccc1OC)S(=O)(=O)c1ccccc1 [SW202951] | -8.59
7. COc1ccc(OC)c(N(CC(=O)Nc2cccnc2)S(=O)(=O)c2ccccc2OC(F)(F)F)c1 [SW202954] | 9.88
8. COC(=O)CN(c1cc(OC)ccc1OC)S(=O)(=O)c1ccccc1 [SW202980] | 1.44
9. CCCOC(=O)CN(c1cc(OC)ccc1OC)[S@SP3](=O)(=O)c1ccccc1 [SW202986] | 2.58

====

- targetEntity: recombinant 15-PGDH protein (Homo sapiens (Human))
- experiment: Inhibition of enzymatic activity of recombinant 15-PGDH in vitro
- Type: biochemical
- assaySetup: read-out: Enzyme inhibition % ([…]), recombinant 15-PGDH, […] compound; read-out: Enzyme inhibition % (7.5 μM)
Listing of recorded inhibition at […] by entry.
observedProperty: inhibition at […]

1) COc1ccc(S(=O)(=O)N(CC(=O)N2CCOCC2)c2cc(OC)ccc2OC)cc1 | -0.86%
2) COc1ccc(OC)c(N(CC(=O)Nc2ccccc2OC)S(=O)(=O)c2ccccc2)c1 | 33.1%
3) COc1ccc(OC)c(N(CC(=O)Nc2ccnnc2)S(=O)(=O)c2ccccc2)c1 | 73.3%
4) COc1ccc(OC)c(N(CC(=O)Nc2cccnc2)S(=O)(=O)c2ccccc2)c1 | 58.2%

====

- targetEntity: recombinant 15-PGDH protein (Homo sapiens (Human))
- experiment: Inhibition of enzymatic activity of recombinant 15-PGDH in vitro
- Format: biochemical
- assaySetup: read-out: Enzyme inhibition % ([…]), recombinant 15-PGDH, […] compound; read-out: Enzyme inhibition % (7.5 μM)
Listing of recorded inhibition at […] by entry.
observedProperty: inhibition at […] (%)

1) COc1ccc(OC)c(N(CC(=O)Nc2cccnc2)S(=O)(=O)c2ccccc2C(F)(F)F)c1 | 57.8
2) COc1ccc(OC)c(N(CC(=O)Nc2ccccc2C)S(=O)(=O)c2ccccc2)c1 | 4.53
3) COc1ccc(OC)c(N(CC(=O)OC(C)(C)C)S(=O)(=O)c2ccccc2)c1 | 6.24
4) COc1ccc(OC)c(N(CC(=O)Nc2cccc(C)c2)S(=O)(=O)c2ccccc2)c1 | 9.43
5) COc1ccc(OC)c(N(CC(=O)Nc2ccccc2)S(=O)(=O)c2ccccc2)c1 | 33.5
6) COc1ccc(OC)c(N(CC(=O)Nc2cncnc2)S(=O)(=O)c2ccccc2)c1 | 57.1
7) COc1ccc(OC)c(N(CC(=O)Nc2cccnc2)S(=O)(=O)c2ccc(C)cc2)c1 | 78.3
8) COc1ccc(OC)c(N(CC(=O)Nc2ccccn2)S(=O)(=O)c2ccccc2)c1 | 35.6
